# System Tested: T1, HER2 expressed on the surface of cells (human, UniProt P04626 23-1255)
# T1 construct: whole, on cells; also called ErbB2
# Protocol Details: flow cytometry on MCF7 cells (low HER2), n=1; B50 = concentration at 50% of Bmax
Recorded B50 values for a group of binders are listed next.

Binder	B50
Variant 14021 (antibody, name in Kabat numbering, V domains shown, also called v14021) VH: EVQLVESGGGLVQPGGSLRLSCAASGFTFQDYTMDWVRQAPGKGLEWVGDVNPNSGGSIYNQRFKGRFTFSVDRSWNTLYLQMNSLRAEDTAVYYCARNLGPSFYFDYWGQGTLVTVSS VL: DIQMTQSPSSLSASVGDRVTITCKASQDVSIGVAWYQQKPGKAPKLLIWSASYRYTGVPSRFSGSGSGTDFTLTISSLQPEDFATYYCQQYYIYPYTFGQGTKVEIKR	1 nM

Now for the binder whose B50 we want.
Entry Variant 14018 (antibody, name in Kabat numbering, V domains shown, also called v14018) VH: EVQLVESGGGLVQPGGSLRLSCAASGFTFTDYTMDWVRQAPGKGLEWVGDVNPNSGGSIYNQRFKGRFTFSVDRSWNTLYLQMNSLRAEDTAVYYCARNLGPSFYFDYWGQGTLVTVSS VL: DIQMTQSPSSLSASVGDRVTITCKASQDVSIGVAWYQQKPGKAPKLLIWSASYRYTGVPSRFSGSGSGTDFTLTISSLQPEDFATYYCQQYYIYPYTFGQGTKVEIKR : reported B50 = ?
0.9 nM

Data provenance is patent US20180273635A1.
